# assayed system: T1, KRAS G12V peptide on HLA-A*11:01 (human)
# T1 peptide: VVVGAVGVGK
# method notes: killing

{"columns": ["binder", "binding result"],
 "data": [
  ["TCR4 (TCR, V domains shown) Valpha: QKEVEQNSGPLSVPEGAIASLNCTYSDRGSQSFFWYRQYSGKSPELIMFIYSNGDKEDGRFTAQLNKASQYVSLLIRDSQPSDSATYLCAVERGSTLGRLYFGRGTQLTVWP Vbeta: GAGVSQSPRYKVTKRGQDVTLRCDPISSHATLYWYQQALGQGPEFLTYFNYEAQPDKSGLPSDRFSAERPEGSISTLTIQRTEQRDSAMYRCASSLSSPTGGPINEQFFGPGTRLTVL", "recognises"],
  ["TCR9 (TCR, V domains shown) Valpha: SQQGEEDPQALSIQEGENATMNCSYKTSINNLQWYRQNSGRGLVHLILIRSNEREKHSGRLRVTLDTSKKSSSLLITASRAADTASYFCATDSGGGADGLTFGKGTHLIIQP Vbeta: DSGVTQTPKHLITATGQRVTLRCSPRSGDLSVYWYQQSLDQGLQFLIQYYNGEERAKGNILERFSAQQFPDLHSELNLSSLELGDSALYFCASTPGRDSGNTIYFGEGSWLTVV", "recognises"],
  ["TCR3 (TCR, V domains shown) Valpha: DQQVKQNSPSLSVQEGRISILNCDYTNSMFDYFLWYKKYPAEGPTFLISISSIKDKNEDGRFTVFLNKSAKHLSLHIVPSQPGDSAVYFCAANSGYALNFGKGTSLLVTP Vbeta: KAGVTQTPRYLIKTRGQQVTLSCSPISGHRSVSWYQQTPGQGLQFLFEYFSETQRNKGNFPGRFSGRQFSNSRSEMNVSTLELGDSALYLCASSLGGVGNEQFFGPGTRLTVL", "recognises"]
]}
